assay: sensitizers of A549 cells to miR-34 induction, primary screen, imaging, A549 dox-inducible miR-34, nuclei and caspase counts (AID 1347080); conditions: A549 miR-34 inducible, Hoechst nuclei count, 48 h; measured here: total cells with miR-34 induction; stronger effect = lower value; also: test concentration not given here
Listed here: items and their measured cell count.

COMPOUND: C[C@]12C=CC(=O)C=C1CCC1C2[C@@H](O)C[C@@]2(C)C1CC[C@]2(O)C(=O)CO (some centres undefined)
cell count: 6630
--
COMPOUND: Cc1ccc(/C=N/NC(=O)c2ccccc2Oc2ccccc2)o1
cell count: 7340
--
COMPOUND: CCCCCCCCCCC[C@@H](C[C@H]1OC(=O)[C@H]1CCCCCC)OC(=O)[C@@H](CC(C)C)NC=O
cell count: 11500
--
COMPOUND: Cc1c(-c2cnccn2)ssc1=S
cell count: 9050
--
COMPOUND: CC1(C)O[C@@H]2CC3C4C[C@H](F)C5=CC(=O)C=C[C@]5(C)[C@@]4(F)[C@@H](O)C[C@]3(C)[C@]2(C(=O)CO)O1 (some centres undefined)
cell count: 7030

*Q* Quote cell count reported for `OC[C@H]1O[C@H](O[C@]2(CCl)O[C@H](CCl)[C@@H](O)[C@@H]2O)[C@H](O)[C@@H](O)[C@H]1Cl` please.
*A* 12300

*Q* Identify cell count associated with the compound `CC(C)c1onc(-c2c(Cl)cccc2Cl)c1COc1ccc(/C=C/c2cccc(C(=O)O)c2)c(Cl)c1`
*A* 5590

*Q* Please list cell count recorded for the compound `CNCC[C@@H](Oc1ccccc1)c1ccccc1`
*A* 10900

*Q* Name the recorded cell count of the compound listed here: CC[C@H]1CN2CCc3cc(OC)c(OC)cc3C2C[C@@H]1CC1NCCc2cc(OC)c(OC)cc21 (some centres undefined)
*A* 2470

*Q* Answer with the recorded cell count for the compound listed here: `COc1c(O)cc2c(c1O)[C@H]1O[C@H](CO)[C@@H](O)[C@H](O)[C@@H]1OC2=O`
*A* 8900

*Q* Output cell count of NC(Cc1c[nH]c2ccccc12)C(=O)O (centres undefined)
*A* 11800
